Test system: HS 578T breast
Test: NCI tumour cell line growth inhibition, 48 h
Given measured TGI, output Y if it is greater than or equal to 20 µM and N if not.

The examples below pair each entry with its known result.
Cn1c2ccccc2c2nnc(NNCc3ccccn3)nc21 | N
CC(C)N(/C(F)=N\C(=O)Nc1ccccc1C(F)(F)F)C(C)C | Y
COC(=O)c1ccc(C)cc1CC1Cc2c(C)cccc2C1=O (centres undefined) | Y
CN(C)c1ccc(C(=C2C=CC(=[N+](C)C)C=C2)c2ccccc2Cl)cc1 | N
O=C1CCCC2=C1CC1=C(CCCC1=O)N2c1cccc([N+](=O)[O-])c1 | Y

stdin: Exam item: decide whether the reported TGI for CC12CCC(O)CC1=CCC1C2CCC2(C)C(c3cccnc3)=CCC12 (centres undefined) is at least 20 µM.
stdout: Y

stdin: Decide: TGI of Oc1c2c(c(O)c3ccccc13)C1(N=N2)c2ccccc2Oc2ccccc21 >= 20 µM?
stdout: Y

stdin: I'd appreciate it if you could say whether CC/C=C\C[C@H](O)C/C=C1/C(=O)C=C[C@@H]1C/C=C\CCCC(=O)NC has TGI at least equal to 20 µM.
stdout: Y

stdin: For this compound, is measured TGI 20 µM or higher? CC(=O)c1ccccc1NS(=O)(=O)c1ccc2nc(C)n(NS(=O)(=O)c3ccccc3C(C)=O)c(=O)c2c1
stdout: Y

stdin: Item CC(=O)OC1OC(c2ccoc2)C[C@@]12C1CCC3O[C@]3(C)[C@]1(C)C[C@H](OC(C)=O)[C@H]2C (some centres undefined) with TGI of 20 µM or above?
stdout: Y

stdin: Answer whether TGI of O=C1C=C2CC[C@H]3[C@@H]4CC[C@H](Oc5c6ccccc6nc6ccccc56)[C@H]4CC[C@@H]3[C@H]2CC1 is greater than or equal to 20 µM.
stdout: Y

stdin: Threshold query (TGI >= 20 µM) on CC[C@H]1C=CCC[C@@]2(C[C@@H]3CC[C@@H]4[C@H](C(=O)OCCCCCCCCCCCCCCCC(=O)N(CCCNC(C)=O)C[C@H](CCNC(C)=O)OC(C)=O)[C@]5(CCC[C@@H](C)O5)NC(=[N+]34)N2)O1
stdout: N

stdin: Hi, just wondering whether COc1cc2c(cc1O)C(c1cc(O)c(O)c(OC)c1)C(O)(C(=O)O)C(CO)C2O (centres undefined) shows TGI of 20 µM or higher.
stdout: Y

stdin: Quick check: does Oc1c(CNCCNCc2cc(Cl)cc(Cc3ccccc3)c2O)cc(Cl)cc1Cc1ccccc1 have TGI greater than or equal to 20 µM?
stdout: Y

Data provenance: PubChem BioAssay (NCI)
